Test: qHTS RealTime-Glo MT Cell Viability Assay in HEK293 cells - 40 hour (AID 1224874); further: on the % scale 0 is the no-effect control and ±100 the full control effect; nearly all actives have a fitted effect of over 50% in size
Details: RealTime-Glo luminescence; stronger effect = lower value
Records with an inconclusive call do not appear.
PARAMETER: max response (%)
# number only, unit % dropped from output

What measured max response goes with `CC1(C)CC(O)CC(C)(C)N1` ?
-4.64

What measured max response goes with `Clc1sc(Cl)c(Cl)c1Cl` ?
7.4

What measured max response goes with `OC[C@H]1O[C@H](O[C@H]2O[C@H](CO)[C@@H](O)[C@H](O)[C@H]2O)[C@H](O)[C@@H](O)[C@@H]1O` ?
25.1

What measured max response goes with `CC(=O)OCC=C(C)C` ?
-1.54

What measured max response goes with `Cc1c(C)c2c(c(C)c1O)CC[C@@](C)(CCC[C@H](C)CCC[C@H](C)CCCC(C)C)O2` ?
-14.1

What measured max response goes with `O=C(O)[C@H](O)[C@@H](O)[C@H](O[C@@H]1O[C@H](CO)[C@H](O)[C@H](O)[C@H]1O)[C@H](O)CO` ?
11.3

What measured max response goes with `CCC(CC)(CC(=O)Nc1cccc(/C=C/c2nc(C3CCC3)cs2)c1)C(=O)O` ?
-19.8

What measured max response goes with `CCCC(=O)OC(C)(C)Cc1ccccc1` ?
-22.8

What measured max response goes with `COCCOc1cc2cc(C(=O)NC3CCN(C(C)C)CC3)n(CC(=O)Nc3ccc(Cl)cn3)c2cn1` ?
-25.3

What measured max response goes with `O=[N+]([O-])c1cccc(C(F)(F)F)c1` ?
7.87

What measured max response goes with `COC(C)=O` ?
-13.9

----------
Assay: qHTS assay to test for compound auto fluorescence at 590 nm (red) in HEK293 cells (AID 720679); further: on the % scale 0 is the no-effect control and ±100 the full control effect
Conditions: red autofluorescence 540/590 nm; series mostly up to 91.3 µM
Calls of active or inactive are those of the source. Calls come from the whole dose curve; as a rule, active = well fitted curve in the direction sought with a large enough effect in the repeat runs; inconclusive = weak or mixed curves; inactive = flat fitted curve, though single readings scatter.
PARAMETER: fluorescence, % of fluorescent control

>  <COMPOUND>
NC(=O)c1cccc([N+](=O)[O-])c1

>  <fluorescence, % of fluorescent control>
inactive

$$$$
>  <COMPOUND>
O=S(=O)(O)c1ccc(N=Nc2c(O)ccc3ccccc23)cc1

>  <fluorescence, % of fluorescent control>
inactive

$$$$
>  <COMPOUND>
S=C([S-])NCCNC(=S)[S-].S=C([S-])NCCNC(=S)[S-].[Mn+2].[Zn+2]

>  <fluorescence, % of fluorescent control>
inactive

$$$$
>  <COMPOUND>
CC(C)(C)C1CCC(=O)CC1

>  <fluorescence, % of fluorescent control>
inactive

$$$$

What measured fluorescence, % of fluorescent control goes with COC(=O)C1=C(C)NC(C)=C(C(=O)OCCN2CCN(C(c3ccccc3)c3ccccc3)CC2)C1c1cccc([N+](=O)[O-])c1 (configuration not stated) ?
inactive

What measured fluorescence, % of fluorescent control goes with `CC(=O)[C@H]1CC[C@H]2[C@@H]3CCC4=CC(=O)CC[C@]4(C)[C@H]3CC[C@]12C` ?
inactive

What measured fluorescence, % of fluorescent control goes with `CCCCCCCCCCCCOCCOCCOCCOCCOCCOCCOCCOCCOCCO` ?
inactive

What measured fluorescence, % of fluorescent control goes with `CCCCCCCCCCOC(=O)c1ccccc1C(=O)OCCCCCCCC` ?
inactive
